# Test system: Human Umbilical Vein Endothelial Cells (HUVECs)
# assay.text: Inhibition against sandwich tube formation by vascular endothelial cells in response to stimulation by VEGF
# Type: cell-based
# recorded.conditions: HUVEC in collagen gel sandwich, stimulation by VEGF (25 ng/ml VEGF and 10 ng/ml EGF), 4th day, total tube length, read-out: IC50 (concentration required for 50% inhibition of tube formation)
Exercise: state measured IC50 for each of the compounds provided.
Answers are plain numbers, in nM.

Record excerpt, results attached:
N#Cc1cc2c(Oc3ccc(NC(=O)Nc4ccc(F)cc4)c(F)c3)ccnc2cc1OCC(O)CN1CCOCC1 (stereo not shown) [Example 494] ... 9.3
COc1cc2nccc(Oc3ccc(NC(=O)Nc4ccc(F)cc4)cc3)c2cc1NS(C)(=O)=O [Example 266] ... 0.6
COc1cc2nccc(Oc3ccc4c(ccn4C(=O)NC(C)C)c3)c2cc1C(N)=O [Example 320] ... 2.5

// switching to the query compound
Sample COc1cc2nccc(Oc3ccc4c(ccn4C(=O)NCCCCl)c3)c2cc1C(N)=O [Example 325] ; IC50 observed: 1

----------
Exercise: state measured IC50 for each of the molecules provided.
# measured.on: UniProtKB P35968
Give your result as the value with the unit written after it.

Record excerpt, results attached:
COc1cc2nccc(Oc3ccc(N(C)C(=O)Nc4ccc(F)cc4)cc3)c2cc1C(=O)NC1CC1 ... 22 nM
COCCOc1cc2nccc(Oc3ccc(NC(=O)Nc4nccs4)c(F)c3)c2cc1C#N ... 5.5 nM
COc1cc2nccc(Oc3ccc(NC(=O)NC4CC4)c(Cl)c3)c2cc1C(=O)NCCS(C)(=O)=O ... 6.5 nM
NC(=O)c1cc2c(Oc3ccc(NC(=O)NC4CC4)c(F)c3)ccnc2cc1OCCCN1CCOCC1 ... 8.4 nM
O=C(CCCN1CCC(O)CC1)Nc1cc(Oc2ccc3c(ccn3C(=O)NC3CC3)c2)ccn1 ... 14 nM

Record IC50 per entry; entries follow.
1. COc1cc2nccc(Oc3ccc(NC(=O)Nc4ccc(F)cc4F)cc3)c2cc1C#N
2. COc1cc2nccc(Oc3ccc(NC(=O)NC4CC4)cc3)c2cc1C(N)=O
3. COc1cc2nccc(Oc3ccc(NC(=O)NC4CC4)c(Cl)c3)c2cc1C(=O)NCC(N)=O

1. 14 nM
2. 8.7 nM
3. 2.2 nM

----------
# measured.on: VEGFR2 (Homo sapiens)
# Sequence (P35968 786-1356 limits assumed): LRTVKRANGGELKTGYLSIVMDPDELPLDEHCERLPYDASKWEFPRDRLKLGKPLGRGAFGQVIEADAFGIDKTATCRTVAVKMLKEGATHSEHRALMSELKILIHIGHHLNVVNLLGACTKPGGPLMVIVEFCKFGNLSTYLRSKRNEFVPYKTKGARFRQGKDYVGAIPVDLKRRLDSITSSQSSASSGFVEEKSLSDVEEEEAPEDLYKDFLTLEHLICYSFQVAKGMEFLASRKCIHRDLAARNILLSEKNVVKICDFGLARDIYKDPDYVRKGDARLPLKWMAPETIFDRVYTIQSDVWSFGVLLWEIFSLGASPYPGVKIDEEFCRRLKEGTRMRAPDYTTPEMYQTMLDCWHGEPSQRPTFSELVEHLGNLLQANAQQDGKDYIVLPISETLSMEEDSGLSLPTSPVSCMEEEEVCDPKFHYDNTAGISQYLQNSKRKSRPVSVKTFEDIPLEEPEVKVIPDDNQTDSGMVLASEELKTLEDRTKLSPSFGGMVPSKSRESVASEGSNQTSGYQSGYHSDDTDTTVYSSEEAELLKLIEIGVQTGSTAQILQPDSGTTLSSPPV
pIC50: −log10 of the molar value.
Lab note: compare pIC50 against 8. Equal or greater, write class 1. Smaller, write class 0.

// known answers, use as guide
COc1cc2nccc(Oc3ccc(NC(=O)NC4CC4)c(Cl)c3)c2cc1C(=O)NCC1OCCO1 ... class 1
CONC(=O)c1cc2c(Oc3ccc(NC(=O)Nc4nccs4)cc3)ccnc2cc1OC ... class 1
O=C(Nc1ccc(F)cc1)Nc1ccc(Oc2ccnc3[nH]c(=O)ccc23)cc1 ... class 0

Could you now look at the following compound, please?
For this compound, is measured pIC50 8 or higher? COCCOc1cc2nccc(Oc3ccc(NC(=O)Nc4cccc(S(C)(=O)=O)c4)cc3)c2cc1C#N class 1

----------
# Tested on: Human Umbilical Vein Endothelial Cells (HUVECs)
# assay.text: Inhibition against sandwich tube formation by vascular endothelial cells in response to stimulation by VEGF
# Assay type: cell-based
# recorded.conditions: HUVEC in collagen gel sandwich, stimulation by VEGF (25 ng/ml VEGF and 10 ng/ml EGF), 4th day, total tube length, read-out: IC50 (concentration required for 50% inhibition of tube formation)
pIC50: −log10 of the molar value.
Lab note: compare pIC50 against 8. Equal or greater, write MET. Smaller, write NOT MET.

COCCOc1cc2nccc(Oc3ccc(NC(=O)NC4CC4)cc3)c2cc1C#N ... NOT MET
COCCOc1cc2nccc(Oc3ccc(NC(=O)NC4CC4)c(Cl)c3)c2cc1C(N)=O ... MET
CCNC(=O)n1ccc2cc(Oc3ccnc4cc(OC)c(C(N)=O)cc34)ccc21 ... MET
CCNC(=O)n1ccc2cc(Oc3ccnc4cc(OC)c(C(=O)NOC)cc34)ccc21 ... MET
CCN(CC)CCCOc1cc2nccc(Oc3ccc(NC(=O)Nc4ccccc4)cc3)c2cc1C#N ... MET

For this compound, is measured pIC50 8 or higher? CCN(CC)CCCOc1cc2nccc(Oc3ccc(NC(=O)NC4CC4)c(F)c3)c2cc1C(N)=O NOT MET

For this compound, is measured pIC50 8 or higher? COCCOc1cc2nccc(Oc3ccc(NC(=O)Nc4cccc(C#N)c4)cc3)c2cc1C#N NOT MET

For this compound, is measured pIC50 8 or higher? COc1cc2nccc(Oc3ccc(NC(=O)Nc4ccc(F)cc4)cc3)c2cc1NC(C)=O MET

For this compound, is measured pIC50 8 or higher? N#Cc1cc2c(Oc3ccc(NC(=O)Nc4ccc(F)cc4)cc3)ccnc2cc1OC[C@H](O)CN1CCCC1 MET

For this compound, is measured pIC50 8 or higher? O=C(CCCN1CCC(O)CC1)Nc1cc(Oc2ccc3c(ccn3C(=O)Nc3ccccc3)c2)ccn1 MET

For this compound, is measured pIC50 8 or higher? CCNC(=O)n1ccc2cc(Oc3ccnc4cc(OCCCN5CCCC5)c(C#N)cc34)ccc21 MET

For this compound, is measured pIC50 8 or higher? CONC(=O)c1cc2c(Oc3ccc(NC(=O)Nc4nccs4)cc3)ccnc2cc1OC NOT MET

For this compound, is measured pIC50 8 or higher? COc1cc2nccc(Oc3ccc(NC(=O)NC4CC4)c(Cl)c3)c2cc1C(=O)NCCF MET
